# System name: T1, human IL12Rβ1 naturally expressed on cells (Kit225 cells, human T-cells, human blood cells) (human, UniProt P42701 24-662)
# T1 construct: also called IL12 receptor beta 1
# Assay text: flow cytometry, cell binding on Kit225 (human natural expression)
Measured parameter: EC50 (pM)
Report only the number, with the unit pM understood.

The recorded EC50 for entry mAb7 (MOR11879 with IgG1 LALA Fc variant) (antibody, V domains shown, Human IgG1 L234A L235A (LALA), expressed in HKB11 cells) VH: QVQLVQSGAEVKKPGASVKVSCKASGYTFTGYYMHWVRQAPGQGLEWMGMIGPQHGEAIYAQKFQGRVTMTRDTSISTAYMELSRLRSEDTAVYYCARESTDSDESPFDYWGQGTLVTVSS VL: DIELTQPPSVSVSPGQTASITCSGDNIRSYYVSWYQQKPGQAPVLVIYDDSDRPSGIPERFSGSNSGNTATLTISGTQAEDEADYYCQSYGSHSNFVVFGGGTKLTVLG equals 10

The recorded EC50 for entry mAb4 (MOR11878 with IgG1 LALA Fc variant) (antibody, V domains shown, Human IgG1 L234A L235A (LALA), expressed in HKB11 cells) VH: QVQLVESGGGVVQPGRSLRLSCAASGFTFTSYGMSWVRQAPGKGLEWVAGISYDASDTEYADSVKGRFTISRDNSKNTLYLQMNSLRAEDTAVYYCARSPDYIIDYGFDYWGRGTLVTVSS VL: AIQMTQSPSSLSASVGDRVTITCRASQGISSDLAWYQQKPGKAPKLLIYDASSLQSGVPSRFSGSGSGTDFTLTISSLQPEDFATYYCQQYWWYPFTFGQGTKVEIKR equals 5

The recorded EC50 for entry mAb10 (MOR11880 with IgG1 LALA Fc variant) (antibody, V domains shown, Human IgG1 L234A L235A (LALA), expressed in HKB11 cells) VH: QVQLVQSGAEVKKPGASVKVSCKASGYTFTGYYMHWVRQAPGQGLEWMGMIGPQHGEAIYAQKFQGRVTMTRDTSISTAYMELSRLRSDDTAVYYCARESTDSDESPFDYWGQGTLVTVSS VL: SYELTQPLSVSVALGQTARITCSGDNIRSYYVSWYQQKPGQAPVLVIYDDSDRPSGIPERFSGSNSGNTATLTISRAQAGDEADYYCQSYGSHSNFVVFGGGTKLTVLG equals 11

The recorded EC50 for entry mAb1 (MOR11873 with IgG1 LALA Fc variant) (antibody, V domains shown, Human IgG1 L234A L235A (LALA), expressed in HKB11 cells) VH: QVQLVESGGGVVQPGRSLRLSCAASGFTFTSYGMSWVRQAPGKGLEWVAGISYSGSDTEYADSVKGRFTISRDNSKNTLYLQMNSLRAEDTAVYYCARSPDYIIDYGFDYWGRGTLVTVSS VL: AIQMTQSPSSLSASVGDRVTITCRASQGISSDLAWYQQKPGKAPKLLIYDASSLQSGVPSRFSGSGSGTDFTLTISSLQPEDFATYYCQQYWIYPFTFGQGTKVEIKR equals 6

Reference source for all entries: patent US20120082681A1
